Numbers sourced from paper PMC10397247.

Biological target: T1, O15
T1 chain: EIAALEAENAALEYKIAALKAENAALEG
Test: two-hybrid library CC0;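 note: natural log of median RNA to DNA barcode read ratio; higher means stronger binding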
Conditions: mean of both orientations
reported.endpoint: interaction score

>>> df
                               binder  reported_endpoint  meas_value
0  KNAALKAKIAALKYKNAALKAEIAALEG [O13]  interaction score      -0.499
1  KNAALKAENAALEYKIAALKAKIAALKG [O10]  interaction score       -2.76
2  EIAALEAKIAALKYKNAALKAKNAALKG [O12]  interaction score       -2.78
3  ENAALEAEIAALEYENAALEAKIAALKG [O14]  interaction score       -2.74
4   KNAALKAENAALEYEIAALEAEIAALEG [O1]  interaction score        -2.7
5  EIAALEAENAALEYKIAALKAENAALEG [O15]  interaction score       -2.64
6  KIAALKAEIAALEYENAALEAENAALEG [O11]  interaction score       -2.79
